Test: Osmolality of aqueous solution at 300 mg I/ml
Type: physicochemical
Settings: 300 mg I/ml (Table II)

>  <MOLECULE>
O=C(CN(CC(=O)Nc1c(I)c(C(=O)NCCO)c(I)c(C(=O)NCCO)c1I)C(CO)C(O)CO)Nc1c(I)c(C(=O)NCCO)c(I)c(C(=O)NCCO)c1I (centres unmarked)

>  <OSMOLALITY mOsm/kg at 300 mg I/ml / mOsm/kg>
180

$$$$
>  <MOLECULE>
O=C(CN(CC(=O)Nc1c(I)c(C(=O)NCC(O)CO)c(I)c(C(=O)NCC(O)CO)c1I)CC(O)CO)Nc1c(I)c(C(=O)NCC(O)CO)c(I)c(C(=O)NCC(O)CO)c1I (centres unmarked)

>  <OSMOLALITY mOsm/kg at 300 mg I/ml / mOsm/kg>
193

$$$$
>  <MOLECULE>
CN(C(=O)CN(CCO)CC(=O)N(C)c1c(I)c(C(=O)NC(CO)C(O)CO)c(I)c(C(=O)NC(CO)C(O)CO)c1I)c1c(I)c(C(=O)NCCO)c(I)c(C(=O)NCCO)c1I (centres unmarked)

>  <OSMOLALITY mOsm/kg at 300 mg I/ml / mOsm/kg>
188

$$$$
>  <MOLECULE>
CN(C(=O)CN(CCO)CC(=O)Nc1c(I)c(C(=O)NCCO)c(I)c(C(=O)NCCO)c1I)c1c(I)c(C(=O)NC(CO)C(O)CO)c(I)c(C(=O)NC(CO)C(O)CO)c1I (centres unmarked)

>  <OSMOLALITY mOsm/kg at 300 mg I/ml / mOsm/kg>
133

$$$$
>  <MOLECULE>
O=C(CN(CCO)CC(=O)Nc1c(I)c(C(=O)NC(CO)C(O)CO)c(I)c(C(=O)NC(CO)C(O)CO)c1I)Nc1c(I)c(C(=O)NCCO)c(I)c(C(=O)NCCO)c1I (centres unmarked)

>  <OSMOLALITY mOsm/kg at 300 mg I/ml / mOsm/kg>
151

$$$$
